Reference source for all entries: ChEMBL document CHEMBL1201862

- Tested on: NCI-H23
- Protocol: NCI tumour cell line growth inhibition, 48 h
Active and inactive are the calls of the source. No stated cut-off is given here; in the data, active = GI50 up to about 1.1 µM and inactive = higher.
Write down one outcome, taken from label 1 (active), label 0 (inactive)

Previously resolved entries follow.
* CCN1C/C(=C\c2ccc(Cl)cc2)c2[nH]c(=O)c(C#N)c(-c3ccc(Cl)cc3)c2C1 | label 0
* CC(=O)OCc1c2ccccc2c(C)c2c1cc(F)c1ccccc12 | label 0
* Clc1nc(Cl)c(CBr)c(Cl)n1 | label 0
* COc1cc2cc(C(=O)N3CC(CCl)c4c3cc(NC(=O)C(C)(C)c3ccccc3[N+](=O)[O-])c3ccccc43)[nH]c2c(OC)c1OC (configuration not stated) | label 1
* CC(C)(C)OC(=O)NC(Cc1ccc(OCc2ccccc2)cn1)C(=O)NCc1ccccc1 (configuration not stated) | label 0

Qu. Dear colleague, could you share the recorded outcome for `CC(=O)CC(=O)Nc1ccc(OS(N)(=O)=O)cc1` when you have a moment?
Ans. label 0

Qu. Hello, I am checking results. What call was entered for `COc1ccc(/C=C2\C[C@H]3[C@@H]4CC=C5C[C@@H](OC(C)=O)CC[C@]5(C)[C@H]4CC[C@]3(C)C2=O)cc1OC` ?
Ans. label 0

###

- Test system: ACHN
- Protocol: NCI tumour cell line growth inhibition, 48 h
Active and inactive are the calls of the source. Rule as the data show it: active = GI50 up to about 1.1 µM and inactive = higher.
Please reply with one of these outcomes: Yes for active, No for inactive

Previously resolved entries follow.
- N#C/C(=C/NC(=S)NCc1ccccc1)C(N)=O: No
- COc1ccc(-c2nc3ccccc3c(=S)n2OC(C)=O)cc1: No
- O=C(NNCc1ccco1)c1cc2ccccc2[nH]1: No
- c1ccc2c[n+](CCCC[n+]3ccc4ccccc4c3)ccc2c1: No
- COc1ccc2nc3ccc(OC)cc3c(SCCCl)c2c1: No
- COc1ccc2c3c1OC1C(OC)(OC)C=C[C@@]4(Br)[C@@H](C2)N(CC2CC2)CC[C@]314 (stereo partly drawn): No
- N#CC1C=Cc2ccccc2N1C(=O)Oc1ccccc1 (stereo not drawn): No
- CC[C@]1(Cc2ccc(OC)c(OC)c2)C=[N+]([O-])O[C@H](OCc2ccccc2)[C@@H]1OC(C)=O: No
- O=C(N/N=C(COc1ccccc1Cl)\N=C\c1cccnc1)c1ccncc1: No
- Nc1nc(N)c2c(n1)NC(c1ccccc1)CC(/C=C/c1ccc(Cl)cc1)=N2 (stereo not drawn): No

Qu. Recorded call for CCOC(=O)C1=C(c2ccccc2)C12N(Cc1ccccc1)C(=O)C2(c1ccccc1)c1ccccc1 (stereo not drawn) ?
Ans. No

Qu. Could you kindly confirm the outcome this assay logged for `COc1cc(/C=N\O)nc(-c2ccccn2)c1` ?
Ans. Yes

Qu. Short answer needed: outcome of this test for `CCCCCCC(=O)OC[n+]1ccc(-c2c(COC(=O)NC(C)C)c(COC(=O)NC(C)C)c3n2CCC3)cc1` ?
Ans. No

Qu. Please let me know the test result on file for COC1(OC)CCC2(C)OC(c3ccccc3)C1O2 (stereo not drawn) .
Ans. No

Qu. Assay outcome for CC1SC(c2ccccc2)N(Nc2c3ccccc3nc3ccccc23)C1=O (stereo not drawn) : what was it?
Ans. No

Qu. What classification did `Nc1nc(N)c2nc(CNc3ccc(C(=O)O)cc3)[nH]c2n1` end up with in this test?
Ans. No

Qu. Which outcome did this test record for the compound `CN1CCc2c(sc3nc(Nc4ccccc4)n(N)c(=O)c23)C1` ?
Ans. No

Qu. GET /call?item= `C=C(c1ccccc1)[C@@]1(O)CCCC[C@H]1NC(c1ccccc1)c1ccccc1` returns the recorded outcome of this test.
Ans. No

###

- Tested on: NCI/ADR-RES
- Protocol: NCI tumour cell line growth inhibition, 48 h
Activity calls are given as the source filed them. Rule as the data show it: active = GI50 up to about 1.1 µM and inactive = higher.
Quick reference for GI50 among some compounds

- O=C(Cn1cc(F)c(=O)[nH]c1=O)C12CC3CC(CC(C3)C1)C2: > 100 µM (inactive)

Qu. Provide the documented GI50 with NCI/ADR-RES as the system for `O=C1CC(=O)c2c(N3CCCC3)sc(N3CCCC3)c21`
Ans. > 100 µM (inactive)

Qu. NCI/ADR-RES / GI50 / `O=C1Nc2ccccc2S/C1=C\c1cccc(C(F)(F)F)c1` : value?
Ans. > 100 µM (inactive)

Qu. Request: GI50, test system NCI/ADR-RES, entry `COc1cc([N+](=O)[O-])c(OC)c2c(Nc3ccc(S(=O)(=O)O)c4cc(S(=O)(=O)O)cc(S(=O)(=O)O)c34)cc(C)nc12`
Ans. > 100 µM (inactive)

###

- Tested on: LOX IMVI
- Protocol: NCI tumour cell line growth inhibition, 48 h
Calls of active or inactive are those of the source. Cut-off read from the data, not from the text of the source: active = GI50 up to about 1.1 µM and inactive = higher.
# valid calls are active, inactive; nothing else

Before answering, review these 5 worked examples.
* COC(=O)Cc1cc(=O)n2c([nH]c3ccccc32)c1C#N | inactive
* C=CCOc1ccc(C2c3c(n[nH]c3O)CC(O)(OCC)C2C(=O)OCC)cc1OC (configuration not stated) | inactive
* CC1(C)OC(C(N)=O)=C(C(N)=O)O1 | inactive
* COC1=CC(=O)c2c(c(-c3nc(C)cs3)cn2C)C1=O | active
* O=[N+]([O-])c1cccc2nccc(NCCCO)c12 | inactive

Qu. Outcome? `COc1ccc(-c2cc(N3CCN(c4ccc(Cl)cc4)CC3)c(C#N)c(=O)o2)cc1`
Ans. inactive

Qu. Hi, do you know how N#Cc1c2c(c(N)oc1=O)C(c1ccccc1)CC(=O)N2 (configuration not stated) came out in this test?
Ans. inactive

###

Form field: GI50 (one value per entry).
- Tested on: SF-539
- Protocol: NCI tumour cell line growth inhibition, 48 h
The source made the active and inactive calls. No stated cut-off is given here; in the data, active = GI50 up to about 1.1 µM and inactive = higher.

Worked cases, answers included:
* CC1(CO)C(O)CCC2(C)C1CCC1CC3CC12CCC3(O)CO (stereo not given) | 2.9 µM (inactive)
* CCCCN1C=CN2c3nc4cc(C)c(C)cc4n3C(C(=O)OC)=C(C(=O)OC)C12 (stereo not given) | > 100 µM (inactive)
* Nc1ccc2nc3ccc(N)cc3[n+](-c3ccccc3)c2c1 | 60.7 µM (inactive)
* N#CCC(=O)Nn1c(CC#N)nnc1Cc1ccccc1 | > 100 µM (inactive)
* CCOC(=O)COc1ccccc1/C=C1\CCC(CN(C)C)C1=O (stereo not given) | 11.9 µM (inactive)
* CC1=NN(C(=O)c2ccc(Cl)cc2)C(=O)/C1=C/c1cccc([N+](=O)[O-])c1 | > 100 µM (inactive)
* Brc1cc2c(cc1C1SCCS1)OCO2 | > 100 µM (inactive)
* CC1(C)[C@@H]2CC[C@@]1(C)[C@H](O)[C@@H]2SCc1ccccc1 | 17.8 µM (inactive)
* CCCCCCCCCCCCCCCCCC(=O)OCC1OC(OC)C(NC(=O)N(CCCl)N=O)C(O)C1O (stereo not given) | 9.86 µM (inactive)
* CC(C)(C)c1ccc(CN2CCN(C(c3ccccc3)c3ccc(Cl)cc3)CC2)cc1 (stereo not given) | 30.3 µM (inactive)

Qu. Please report the recorded GI50 for `CC(=O)Oc1cc(Cl)c(C)c2c1[C@H]1CC[C@]3(C)[C@@H](OC(C)=O)CC[C@H]3[C@@H]1CC2` .
Ans. > 100 µM (inactive)

Qu. Could you share which GI50 value was measured for O=C1c2[nH]c3ccccc3c2CCN2CCCCC12 (stereo not given) ?
Ans. 21.1 µM (inactive)

Qu. Look up GI50 for this molecule: COc1cc(/C=C2\CCC(C)C3=C(c4cc(OC)c(OC)c(OC)c4)C(C#N)=C(N)OC32)cc(OC)c1OC (stereo not given)
Ans. 2.26 µM (inactive)

Qu. I'd like to know its GI50. The molecule in question is `Cc1cc(Cl)ccc1NC(=O)/C(Cl)=C(/Cl)C(=O)O`
Ans. 23 µM (inactive)

Qu. Give the measured GI50 of `CCOC(=O)c1c(N2CCOCC2)[nH]c(=O)c(C(c2c(Cl)cccc2Cl)c2c(O)c(C(=O)OCC)c(N3CCOCC3)[nH]c2=O)c1O` .
Ans. 5.11 µM (inactive)

Qu. Endpoint output: GI50 of `COc1ccc(/C=N/Nc2nc3ccccc3c(=O)n2-c2ccccc2)cc1` . Value?
Ans. > 100 µM (inactive)

Qu. Please report the recorded GI50 for `FC(F)(Sc1ncc[nH]1)c1nc2ccccc2o1` .
Ans. > 100 µM (inactive)

###

- System: MCF7
- Protocol: NCI tumour cell line growth inhibition, 48 h
Calls of active or inactive are those of the source. Cut-off read from the data, not from the text of the source: active = GI50 up to about 1.1 µM and inactive = higher.
Measured GI50 accompanies every entry in the list below.

- CCOC1Oc2ccccc2-c2nc(N)ncc21 (stereo not drawn): 37.4 µM (inactive)
- CC(=O)OCC1OC(O[C@H]2C=C[C@@H](C(=O)OCc3ccccc3)n3c(=O)n(-c4ccccc4)c(=O)n32)C(OC(C)=O)C(OC(C)=O)C1OC(C)=O (stereo partly drawn): 1.17 µM (inactive)

// switching to the query compound
Qu. # value lookup — system MCF7, readout GI50, item `O=[N+]([O-])c1ccc(Nc2cccc3c4cc[nH]c(-c5ccccc5)c-4nc23)c([N+](=O)[O-])c1`
Ans. 54.2 µM (inactive)
